target: Full length human recombinant HDAC11 (Homo sapiens, UniProt Q96DB2); construct: Full length human recombinant HDAC6 and HDAC11 proteins were expressed in baculoviral system; assay: In vitro histone deacetylase assay, enzymatic HDAC11 (electrophoretic mobility shift assay); details: 10 nM HDAC11; 2 μM peptide substrate FAM-RHKK(tri-fluor-Ac)—NH2; 25° C.; 12 concentrations; read-out: HDAC11 Activity Range (IC50)
REPORTED_ENDPOINT: IC50

Example compounds with recorded IC50:
O=C(NO)c1ccc2c(c1)C[C@]1(CC2)CCN(c2nc3ccccc3[nH]2)C1=O [Compound I-32]    > 500 nM
O=C(NO)c1ccc2c(c1)C[C@]1(CC2)CCN(Cc2ccc(Cl)cc2)C1=O [Compound I-38]    > 500 nM
O=C(NO)c1ccc2c(c1)C[C@@]1(CC2)CCN(Cc2ccc(Cl)cc2)C1=O [Compound I-37]    ≤ 100 nM
COCCN1CC[C@@]2(CCc3ccc(C(=O)NO)cc3C2)C1=O [Compound I-56]    > 500 nM
O=C(NO)c1ccc2c(c1)OC1(CC2)CCN(C(=O)C2CCCCC2)CC1 [II-5]    100 to 500 nM

Supply measured IC50 of O=C(NO)c1ccc2c(c1)C[C@]1(CC2)CCN(c2ccccn2)C1=O [Compound I-43] in your reply. > 500 nM

Supply measured IC50 of O=C(NO)c1ccc2c(c1)C[C@@]1(CC2)CCN(CC(=O)N2CCOCC2)C1=O [Compound I-64] in your reply. > 500 nM

Supply measured IC50 of O=C(NO)c1ccc2c(c1)C[C@@]1(CC2)CC(=O)N(CC(F)(F)F)C1 [Compound I-144] in your reply. > 500 nM

* * *

Molecular target: Full length human recombinant HDAC11 (Homo sapiens)
Construct: Full length human recombinant HDAC6 and HDAC11 proteins were expressed in baculoviral system
Sequence (Q96DB2 1-347): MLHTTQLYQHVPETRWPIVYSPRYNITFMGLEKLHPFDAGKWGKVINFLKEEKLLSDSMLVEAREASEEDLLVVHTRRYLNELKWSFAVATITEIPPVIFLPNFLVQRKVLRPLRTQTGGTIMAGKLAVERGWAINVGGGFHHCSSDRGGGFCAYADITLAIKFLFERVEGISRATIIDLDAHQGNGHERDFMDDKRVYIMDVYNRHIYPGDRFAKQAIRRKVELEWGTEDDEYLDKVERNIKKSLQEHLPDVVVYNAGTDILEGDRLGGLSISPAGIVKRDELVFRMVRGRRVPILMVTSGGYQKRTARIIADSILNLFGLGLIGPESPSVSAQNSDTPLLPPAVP
Experiment: In vitro histone deacetylase assay, enzymatic HDAC11 (electrophoretic mobility shift assay)
Settings: 10 nM HDAC11; 2 μM peptide substrate FAM-RHKK(tri-fluor-Ac)—NH2; 25° C.; 12 concentrations; read-out: HDAC11 Activity Range (IC50)
REPORTED_ENDPOINT: IC50

Example molecules with recorded IC50:
CN1CC[C@@]2(CCc3ccc(C(=O)NO)cc3C2)C1=O    > 500 nM
O=C(NO)c1ccc2c(c1)C[C@]1(CC2)CCN(Cc2ccccc2OC(F)(F)F)C1=O    ≤ 100 nM
O=C(NO)c1ccc2c(c1)C[C@]1(CC2)CC(=O)N(CC2CCC2)C1    > 500 nM
O=C(NO)c1ccc2c(c1)C[C@]1(CC2)CCN(Cc2cccc(Cl)c2)C1=O    ≤ 100 nM

The record that follows has no IC50 shown yet.
Retrieve IC50 on Full length human recombinant HDAC11 (Homo sapiens); query COCCN1CC[C@]2(CCc3ccc(C(=O)NO)cc3C2)C1=O > 500 nM
